Origin of measurements: PubChem BioAssay (NCI)

- Test system: COLO 205 colon
- Assay Summary: NCI-60 one-dose screen, 48 h
- Measurement Context: 10 µM unless noted
- Procedure: Cells are grown in 96 well plates and exposed to the test compound for 48 hours. Compounds are tested at a single concentration, which is 10^-5 M for most compounds. The reported endpoint is percent growth (GI% or GIPRCNT), where numbers from 0 - 100% represent growth inhibition, and numbers from -100% - 0 represent cell death. For example, a value of 40 represents 60% growth inhibition. A value of 0 means no net growth occurred over the course of the experiment. […]
This is part of a sample that, as a whole, favours compounds with a hit. Of some 83,000 tested, about 20% had one in any assay. Active and inactive are the calls of the source. How the source made its calls: active means growth percent below 10; inactive means the rest.
Possible outcomes: True for active, False for inactive

>  <Compound>
N=c1ccc2nc3ccc(N)cc3sc-2c1

>  <Class Label>
True

$$$$
>  <Compound>
C=C[C@@H]1C[C@H](O)Cc2ccccc2N1

>  <Class Label>
False

$$$$
>  <Compound>
COc1ccc2[nH]c(=O)c(/C=N/Nc3nc(-c4ccccc4)cs3)c(O)c2c1

>  <Class Label>
False

$$$$
>  <Compound>
COc1cc(/C=C/C(=O)c2c(C)nc3ccccc3c2C)ccc1OCCCCOc1cc2c(cc1OC)C(=O)N1CCC[C@H]1C=N2

>  <Class Label>
True

$$$$
>  <Compound>
CC[N+](CC)=c1cc2oc3cc(N(C)C)ccc3nc-2cc1C

>  <Class Label>
True

$$$$
>  <Compound>
O=C(NNC(=O)N1c2ccccc2C=Cc2ccccc21)c1ccc2ccccc2c1

>  <Class Label>
False

$$$$
>  <Compound>
COc1ccc(-c2ccc(C)n2-c2ccc(-c3nc4cc(Cl)ccc4s3)cc2)cc1

>  <Class Label>
False

$$$$
>  <Compound>
CCO/C=N/C1=C(C#N)C(c2ccc(Cl)cc2)c2c(c3ccccc3n(C)c2=O)O1 (stereo not given)

>  <Class Label>
False

$$$$
>  <Compound>
N[C@H]1CN(C(=O)c2cc3cc(Br)c(F)c(F)c3[nH]2)C[C@@H]1O

>  <Class Label>
False

$$$$
>  <Compound>
Cn1c(=O)c2[nH]c(C3CC=CCC3)nc2n(C)c1=O (stereo not given)

>  <Class Label>
False

$$$$
>  <Compound>
CCC(C)/C(=C\C#N)NCCCN/C(=C/C#N)C(C)CC (stereo not given)

>  <Class Label>
False

$$$$
>  <Compound>
COc1ccc(CNCCCN2C(=O)c3ccc4c5c(ccc(c35)C2=O)C(=O)N(CCCNCCCCNCCCN)C4=O)c(OC)c1OC

>  <Class Label>
True

$$$$
>  <Compound>
CCO/C=N/C1=C(C#N)C(c2ccc(Cl)cc2)c2c(c3ccc(C)cc3[nH]c2=O)O1 (stereo not given)

>  <Class Label>
False

$$$$
>  <Compound>
O=c1ccn(C2CC(O)C(O)C(CO)O2)c(=O)[nH]1 (stereo not given)

>  <Class Label>
False

$$$$
>  <Compound>
O=[N+]([O-])c1ccc(Sc2ncccn2)c([N+](=O)[O-])c1

>  <Class Label>
False

$$$$
>  <Compound>
N=C(N)c1ccc(-c2ccc(-c3cncc4ccccc34)s2)cc1F

>  <Class Label>
True

$$$$
>  <Compound>
CCN1CCN(c2nc(NNC(=O)c3ccccc3)nc(N3CCN(C(c4ccccc4)c4ccccc4)CC3)n2)CC1

>  <Class Label>
True

$$$$
>  <Compound>
Cc1ccc(S(=O)(=O)C2=C3C(=C(c4ccccc4)c4ccccc43)CN(S(=O)(=O)c3ccc(C)cc3)C2)cc1

>  <Class Label>
False

$$$$
>  <Compound>
COC(=O)c1cccc2c1N(C)c1c(cccc1C(=O)OC)CC2

>  <Class Label>
False

$$$$
>  <Compound>
O=S(=O)(NCCNc1nccc(-c2c(-c3cccc(O)c3)nc3sccn23)n1)c1ccc(F)cc1

>  <Class Label>
False

$$$$
>  <Compound>
COC1=C(OC)C(=O)C(CCCCCCCCCC[P+](c2ccccc2)(c2ccccc2)c2ccccc2)=C(C)C1=O

>  <Class Label>
True

$$$$
>  <Compound>
CO[C@H]1NC(=O)N(S(=O)(=O)c2ccc(Cl)cc2)[C@@H]1OC

>  <Class Label>
False

$$$$
>  <Compound>
Fc1ccc(Nc2ncnc3ccc(-c4cnc5[nH]ccc5c4)cc23)cc1Cl

>  <Class Label>
False

$$$$
>  <Compound>
COc1ccc(S(=O)(=O)NCCCNc2nccc(-c3c(-c4cccc([N+](=O)[O-])c4)nc4sccn34)n2)cc1

>  <Class Label>
False

$$$$
>  <Compound>
Cc1[nH]c2ccc(F)cc2c1CCNC(=O)C1CCN(C(=O)c2ccccc2)CC1

>  <Class Label>
False

$$$$
>  <Compound>
O=C(O)COc1ccc(-c2cssc2=S)cc1

>  <Class Label>
False

$$$$
>  <Compound>
CC1CN(c2oc(-c3ccccc3)nc2C#N)CC(C)O1 (stereo not given)

>  <Class Label>
False

$$$$
>  <Compound>
Cn1cnc2c(N3CCN(C(=O)OCc4ccc5c(Cl)cc(Cl)c(O)c5n4)CC3)nc(Cl)nc21

>  <Class Label>
False

$$$$
>  <Compound>
O=C1C2(c3ccccc3)C(c3ccccc3)=C(c3ccccc3)C1(c1ccccc1)C1CC=CC12 (stereo not given)

>  <Class Label>
False

$$$$
>  <Compound>
O=C(Nc1ccc(Cl)c(Cl)c1)NS(=O)(=O)c1cnccc1Oc1ccc(F)cc1

>  <Class Label>
False

$$$$
>  <Compound>
COc1cc2c(c(OC)c1OC)-c1ccc(N)c(=O)cc1[C@@H](NC(C)=O)CC2

>  <Class Label>
True

$$$$
>  <Compound>
CCN(CC)c1ccc2[nH]c3c(C(N)=O)cc(=O)c(=O)c=3oc2c1

>  <Class Label>
True

$$$$
>  <Compound>
Cc1nn(-c2ccc([N+](=O)[O-])cc2)c2ncnc(NCCc3ccccc3)c12

>  <Class Label>
False

$$$$
>  <Compound>
Nc1cccc(-c2nc3sccn3c2-c2ccnc(NCCNS(=O)(=O)c3ccc(C(F)(F)F)cc3)n2)c1

>  <Class Label>
False

$$$$
>  <Compound>
O=c1cc(Cc2ccc([N+](=O)[O-])cc2)[nH]c(=O)[nH]1

>  <Class Label>
False

$$$$
>  <Compound>
O=S1(=O)CCC(N(/N=C/c2ccco2)c2ccccc2)C1 (stereo not given)

>  <Class Label>
False

$$$$
>  <Compound>
CN(C[C@H]1Cc2c(cccc2N2CCN(c3ncccn3)CC2)CN1)[C@H]1CCCc2cccnc21

>  <Class Label>
False

$$$$
>  <Compound>
COc1ccc(C2NN=C3c4ccccc4CCC32)cc1 (stereo not given)

>  <Class Label>
False

$$$$
>  <Compound>
O=C(/C=C/c1cc(-c2ccc3c(c2)OCO3)n[nH]1)c1ccc2c(c1)OCO2

>  <Class Label>
False

$$$$
>  <Compound>
FC(F)(F)c1cccc(-c2cn3c(ccc4ccccc43)n2)c1

>  <Class Label>
False

$$$$
